assay: The drug is tested on Bacteroides uniformis strain: ATCC8492 for biotransformation. The drug concentrations were measured before and after a 12-h incubation by liquid-chromatography-coupled mass spectrometry (LC–MS); settings: 2 µM
Readout label: Bacterial Biotransformation

Sample answers from the record:
CC(C)(Oc1ccc(CCNC(=O)c2ccc(Cl)cc2)cc1)C(=O)O [BEZAFIBRATE] :: Compound metabolized
CN1C(=O)CC(C)(c2ccccc2)C1=O (centres undefined) [METHSUXIMIDE] :: Compound NOT metabolized
CN1CCN(C(=O)O[C@H]2c3nccnc3C(=O)N2c2ccc(Cl)cn2)CC1 [ESZOPICLONE] :: Compound NOT metabolized
COC(=O)C1=C(C)NC(C)=C(C(=O)OC(C)C)C1c1cccc2nonc12 (centres undefined) [ISRADIPINE] :: Compound NOT metabolized
N#Cc1ccc(C(c2ccc(C#N)cc2)n2cncn2)cc1 [LETROZOLE] :: Compound NOT metabolized
COc1ccccc1OCC(O)COC(N)=O (centres undefined) [METHOCARBAMOL] :: Compound NOT metabolized

Enquiry: Provide measured Bacterial Biotransformation value, entry: `CN1CC(=O)N2[C@H](c3ccc4c(c3)OCO4)c3[nH]c4ccccc4c3C[C@@H]2C1=O`
Return: Compound NOT metabolized

Enquiry: Provide measured Bacterial Biotransformation value, entry: COc1ccc(CN2CCNCC2)c(OC)c1OC.Cl.Cl [TRIMETAZIDINE DIHYDROCHLORIDE]
Return: Compound metabolized

Enquiry: Provide measured Bacterial Biotransformation value, entry: NS(=O)(=O)c1cc2c(cc1Cl)N=C(CSCc1ccccc1)NS2(=O)=O [BENZTHIAZIDE]
Return: Compound NOT metabolized

====

settings: bacteroides fragilis, 12 h, 2 µM
Description: The drug is tested on Bacteroides fragilis strain: 3397 (T10) for biotransformation. The drug concentrations were measured before and after a 12-h incubation by liquid-chromatography-coupled mass spectrometry (LC–MS)
Readout label: Bacterial Biotransformation

Sample answers from the record:
CN(C/C=C/C#CC(C)(C)C)Cc1cccc2ccccc12 :: Compound NOT metabolized
CNNCc1ccc(C(=O)NC(C)C)cc1 :: Compound NOT metabolized
CCN(C)C(=O)Oc1cccc([C@H](C)N(C)C)c1.O=C(O)C(O)C(O)C(=O)O [RIVASTIGMINE TARTRATE] :: Compound NOT metabolized
O=C(O)c1cc(/N=N/c2ccc(S(=O)(=O)Nc3ccccn3)cc2)ccc1O :: Compound metabolized
CN(C)CCOC(c1ccc(Cl)cc1)c1ccccn1.O=C(O)/C=C\C(=O)O (configuration not stated) [CARBINOXAMINE MALEATE] :: Compound NOT metabolized
OC(CCN1CCCCC1)(c1ccccc1)C1CCCCC1 (configuration not stated) :: Compound NOT metabolized
Cc1nc2n(c(=O)c1CCN1CCC(c3noc4cc(F)ccc34)CC1)CCCC2 :: Compound NOT metabolized
COc1ccc(C(CN(C)C)C2(O)CCCCC2)cc1 (configuration not stated) :: Compound NOT metabolized

// switching to the query compound
Enquiry: Provide measured Bacterial Biotransformation value, entry: `O=C(CCCN1CCC(O)(c2ccc(Cl)cc2)CC1)c1ccc(F)cc1`
Return: Compound NOT metabolized

====

experiment: The drug is tested on Collinsella aerofaciens strain: ATCC25986 for biotransformation. The drug concentrations were measured before and after a 12-h incubation by liquid-chromatography-coupled mass spectrometry (LC–MS); conditions: 2 µM
Readout label: Bacterial Biotransformation

Sample answers from the record:
C[C@]12CCC(=O)C=C1[C@@H]1C[C@@H]1[C@H]1[C@@H]3[C@@H]4C[C@@H]4[C@@]4(CCC(=O)O4)[C@@]3(C)CC[C@@H]12 :: Compound NOT metabolized
CN1C(C(=O)Nc2ccccn2)=C(O)c2sccc2S1(=O)=O :: Compound NOT metabolized
COc1ccc(/C=C/C(=O)Nc2ccccc2C(=O)O)cc1OC :: Compound NOT metabolized
CCN(CC)CCOC(=O)C(Cc1cccc2ccccc12)CC1CCCO1.O=C(O)C(=O)O (centres undefined) [NAFRONYL OXALATE] :: Compound NOT metabolized
CC(C)(C)NCC(O)COc1cccc2c1CC(O)C(O)C2 (centres undefined) :: Compound NOT metabolized

// switching to the query molecule
Enquiry: Provide measured Bacterial Biotransformation value, entry: OC(CCN1CCCCC1)(c1ccccc1)C1CCCCC1 (centres undefined)
Return: Compound NOT metabolized

====

assay: The drug is tested on Subdoligranulum variabile strain: DSM15176 for biotransformation. The drug concentrations were measured before and after a 12-h incubation by liquid-chromatography-coupled mass spectrometry (LC–MS); settings: 2 µM
Readout label: Bacterial Biotransformation

COc1cc(C(=O)NCc2ccc(OCCN(C)C)cc2)cc(OC)c1OC [TRIMETHOBENZAMIDE] :: Compound NOT metabolized
CC[C@H](C)C(=O)O[C@H]1CCC=C2C=C[C@H](C)[C@H](CC[C@@H]3C[C@@H](O)CC(=O)O3)[C@H]21 [MEVASTATIN] :: Compound metabolized
CN1CCC(OC(c2ccccc2)c2ccccc2)CC1 :: Compound NOT metabolized
CC(=O)O[C@]1(C(C)=O)CC[C@H]2[C@@H]3C=C(Cl)C4=CC(=O)[C@@H]5C[C@@H]5[C@]4(C)[C@H]3CC[C@@]21C [CYPROTERONE ACETATE] :: Compound NOT metabolized

Enquiry: Provide measured Bacterial Biotransformation value, entry: CC1OC(OC2C(O)CC(OC3C(O)CC(OC4CCC5(C)C(CCC6C5CCC5(C)C(C7=CC(=O)OC7)CCC65O)C4)OC3C)OC2C)CC(O)C1O (stereo not drawn)
Return: Compound NOT metabolized

Enquiry: Provide measured Bacterial Biotransformation value, entry: CN1[C@@H]2CC[C@H]1C[C@@H](OC(=O)C(CO)c1ccccc1)C2 (stereo partly drawn) [ATROPINE]
Return: Compound NOT metabolized

Enquiry: Provide measured Bacterial Biotransformation value, entry: O=c1[nH]c2ccccc2n1CCCN1CCC(n2c(=O)[nH]c3cc(Cl)ccc32)CC1 [DOMPERIDONE]
Return: Compound NOT metabolized

Enquiry: Provide measured Bacterial Biotransformation value, entry: CC(Oc1c(Cl)cccc1Cl)C1=NCCN1 (stereo not drawn) [LOFEXIDINE]
Return: Compound metabolized

====

settings: bacteroides fragilis, 12 h, 2 µM
Description: The drug is tested on Bacteroides fragilis strain: NCTC 9343 for biotransformation. The drug concentrations were measured before and after a 12-h incubation by liquid-chromatography-coupled mass spectrometry (LC–MS)
Readout label: Bacterial Biotransformation

Sample answers from the record:
O=C([O-])C[C@H](O)C[C@H](O)/C=C/c1c(C2CC2)nc2ccccc2c1-c1ccc(F)cc1.O=C([O-])C[C@H](O)C[C@H](O)/C=C/c1c(C2CC2)nc2ccccc2c1-c1ccc(F)cc1.[Ca+2] :: Compound NOT metabolized
OCCN(CCO)c1nc(N2CCCCC2)c2nc(N(CCO)CCO)nc(N3CCCCC3)c2n1 :: Compound metabolized
CCCC(C)(COC(N)=O)COC(=O)NC(C)C (centres undefined) :: Compound metabolized
CC1=C(CC(=O)O)c2cc(F)ccc2/C1=C\c1ccc([S+](C)[O-])cc1 (centres undefined) :: Compound NOT metabolized

// switching to the query molecule
Enquiry: Provide measured Bacterial Biotransformation value, entry: CCN1CCCC1CNC(=O)c1cc(S(N)(=O)=O)ccc1OC (centres undefined) [SULPIRIDE]
Return: Compound NOT metabolized

====

assay: The drug is tested on Bacteroides xylanisolvens strain: DSM18836 for biotransformation. The drug concentrations were measured before and after a 12-h incubation by liquid-chromatography-coupled mass spectrometry (LC–MS); conditions: 2 µM
Readout label: Bacterial Biotransformation

Sample answers from the record:
CCN(CC)C(=O)C1(c2ccccc2)CC1CN (stereo not drawn) :: Compound NOT metabolized
C#C[C@]1(O)CC[C@H]2[C@@H]3CCC4=Cc5oncc5C[C@]4(C)[C@H]3CC[C@@]21C :: Compound metabolized
O=C1NCC2(CCN(CCc3ccccc3)CC2)O1 [FENSPIRIDE] :: Compound NOT metabolized
COc1ccc2c(c1)c(CC(=O)O)c(C)n2C(=O)c1ccc(Cl)cc1 :: Compound metabolized

Enquiry: Provide measured Bacterial Biotransformation value, entry: C#C[C@]1(OC(C)=O)CC[C@H]2[C@@H]3CCC4=CC(=O)CC[C@@H]4[C@H]3CC[C@@]21C [NORETHINDRONE ACETATE]
Return: Compound metabolized

Enquiry: Provide measured Bacterial Biotransformation value, entry: `COC(=O)Nc1nc2ccc(C(=O)c3ccccc3)cc2[nH]1`
Return: Compound metabolized

Enquiry: Provide measured Bacterial Biotransformation value, entry: `CN1CCc2c(c3ccccc3n2Cc2ccccc2)C1.CN1CCc2c(c3ccccc3n2Cc2ccccc2)C1.O=S(=O)(O)c1cccc2c(S(=O)(=O)O)cccc12`
Return: Compound NOT metabolized

Enquiry: Provide measured Bacterial Biotransformation value, entry: COc1ccc(CN2CCNCC2)c(OC)c1OC.Cl.Cl [TRIMETAZIDINE DIHYDROCHLORIDE]
Return: Compound metabolized

====

experiment: The drug is tested on Dorea formicigenerans strain: ATCC27755 for biotransformation. The drug concentrations were measured before and after a 12-h incubation by liquid-chromatography-coupled mass spectrometry (LC–MS); settings: 2 µM
Readout label: Bacterial Biotransformation

Sample answers from the record:
CC(C)c1c(CN(C)C(C)Cc2ccccc2)n(C)n(-c2ccccc2)c1=O (configuration not stated) [FAMPROFAZONE] :: Compound metabolized
N#Cc1ccc2c(c1)N(CCCN1CCC(O)CC1)c1ccccc1S2 [PERICIAZINE] :: Compound NOT metabolized
O=C([O-])C[C@H](O)C[C@H](O)/C=C/c1c(C2CC2)nc2ccccc2c1-c1ccc(F)cc1.O=C([O-])C[C@H](O)C[C@H](O)/C=C/c1c(C2CC2)nc2ccccc2c1-c1ccc(F)cc1.[Ca+2] [PITAVASTATIN CALCIUM] :: Compound NOT metabolized
CC[C@@H](CO)NC(=O)[C@@H]1C=C2c3cccc4c3c(cn4C)C[C@H]2N(C)C1.O=C(O)/C=C\C(=O)O [METHYSERGIDE MALEATE] :: Compound metabolized
CC(C)[C@H]1CC[C@H](C(=O)N[C@H](Cc2ccccc2)C(=O)O)CC1 [NATEGLINIDE] :: Compound NOT metabolized

Enquiry: Provide measured Bacterial Biotransformation value, entry: CCN(CC)CCOC(=O)C(Cc1cccc2ccccc12)CC1CCCO1.O=C(O)C(=O)O (configuration not stated) [NAFRONYL OXALATE]
Return: Compound NOT metabolized

Enquiry: Provide measured Bacterial Biotransformation value, entry: CC(C)(C#N)c1cc(Cn2cncn2)cc(C(C)(C)C#N)c1 [ANASTROZOLE]
Return: Compound NOT metabolized
